Target: DNA topoisomerase 1 (Homo sapiens)
Experiment: Inhibition of TOP1 (unknown origin) assessed as decrease in relaxation of supercoiled DNA using supercoiled plasmid DNA at 500 uM relative to camptothecin
Activity calls are given as the source filed them. No cut-off for these calls is given here.
measurementType: inhibition

{"columns": ["compound", "recordedResult"],
 "data": [
  ["COc1ccc2[nH]c3c(c2c1)CCN(C(=O)CCc1ccccc1)C3c1ccccc1 (stereo not given)", "Active"],
  ["COc1ccc2[nH]c3c(c2c1)CCN(C(=O)CCc1ccc(F)cc1)C3c1ccccc1 (stereo not given)", "Active"],
  ["COc1ccc2[nH]c3c(c2c1)CCN(C(=O)CCc1ccccc1)C3c1ccc(Cl)c(Cl)c1 (stereo in doubt; 45)", "Active"],
  ["COc1ccc2[nH]c3c(c2c1)CCN(C(=O)c1ccccc1)C3c1ccc(Cl)c(Cl)c1 (stereo not given)", "Active"],
  ["COc1ccc2[nH]c3c(c2c1)CCN(C(=O)c1ccc(F)cc1)C3c1ccc(Cl)c(Cl)c1 (stereo not given)", "Active"]
]}
